Here the recorded pEC50 is given for each entry.
# TESTED_SYSTEM: human PDE1b enzyme (Homo sapiens (Human))
# ASSAY_PROCEDURE: PDE1b inhibitory assay (IMAP TR-FRET)
pEC50: −log10 of the molar value.

Recorded pEC50, per entry:
| MOLECULE | TESTED_SYSTEM | pEC50 |
| --- | --- | --- |
| Cc1cc2c(s1)n(Cc1ccccc1Cl)c(=O)n1ncnc21 [Example 13] | human PDE1b enzyme (Homo sapiens (Human)) | 5.00 to 6.00 |
| COc1ccc(Cn2c(=O)n3ncnc3c3cc(CN(C)C)sc32)c(F)c1F [Example 214] | human PDE1b enzyme (Homo sapiens (Human)) | 6.00 to 7.00 |
| O=c1n(Cc2ccc(OC(F)(F)F)cc2)c2sc3c(c2c2ncnn12)CCOC3 [Example 96] | human PDE1b enzyme (Homo sapiens (Human)) | 5.00 to 6.00 |
| O=c1n(Cc2cccc(Cl)c2)c2sc(Cc3ccccc3)cc2c2ncnn12 [Example 9] | human PDE1b enzyme (Homo sapiens (Human)) | 6.00 to 7.00 |
| COc1ccc(Cn2c(=O)n3ncnc3c3c4c(sc32)CN(CC2CNCCO2)CC4)cc1 (stereo not drawn) [Example 180] | human PDE1b enzyme (Homo sapiens (Human)) | 6.00 to 7.00 |

Entry O=c1n(Cc2ccc(F)cc2)c2sc3c(c2c2ncnn12)CCOC3 [Example 92] ; pEC50 = 5.00 to 6.00

Recorded pEC50 (molecule CC(C)CCc1cc2c(s1)n(Cc1cccc(Cl)c1)c(=O)n1ncnc21 [Example 20] ): 5.00 to 6.00

Record summary for O=c1n(Cc2ccc(-c3ccccc3)cc2)c2sc3c(c2c2ncnn12)CCCC3 [Example 86] : reported pEC50 = 5.00 to 6.00

Record O=c1n(Cc2ccccc2Cl)c2sc(Cc3ccccc3)cc2c2ncnn12 [Example 8] , field pEC50: 6.00 to 7.00

---

Parameter: EC50. Scope: all listed entries.
# TESTED_SYSTEM: human PDE1b enzyme (Homo sapiens (Human), UniProt Q01064)
# ASSAY_PROCEDURE: PDE1b inhibitory assay (IMAP TR-FRET)

Look over these answered cases.
| COMPOUND | RECORDED_VALUE |
| --- | --- |
| COc1ccc(Cn2c(=O)n3ncnc3c3c4c(sc32)NCCC4)cc1OC | 1 to 10 µM |
| COc1ccc(Cn2c(=O)n3ncnc3c3cc(CN4CCN(C)CC4)sc32)cc1 | 0.1 to 1 µM |

Recorded EC50 (compound `COc1ccc(Cn2c(=O)n3ncnc3c3cc(CN4CC(O)C4)sc32)c(F)c1F` ): 0.1 to 1 µM

Form field EC50, entry `COc1ccc(Cn2c(=O)n3ncnc3c3c4c(sc32)N(Cc2ccc(Cl)cc2)CCC4)cc1OC` : 1 to 10 µM

The reported EC50 of the compound COc1ccc(Cn2c(=O)n3ncnc3c3cc(CN4CCC5(C4)CC5(F)F)sc32)cc1 (centres unmarked) was 0.1 to 1 µM

---

# TESTED_SYSTEM: human PDE1b enzyme (Homo sapiens (Human))
# ASSAY_PROCEDURE: PDE1b inhibitory assay (IMAP TR-FRET)
This section presents compounds with their documented EC50 values.

| COMPOUND | PROPERTY_NAME | RECORDED_VALUE |
| --- | --- | --- |
| Cc1ccc(Cn2c(=O)n3ncnc3c3c4c(sc32)COCC4)cc1 [Example 88] | EC50 | 100 to 1000 nM |

Entry O=c1n(Cc2ccccc2)c2sc3c(c2c2ncnn12)CCCC3 [Example 84] ; EC50 = 100 to 1000 nM

Documented EC50 of COc1ccc(Cn2c(=O)n3ncnc3c3c4c(sc32)CN(CC2CCNCC2)CC4)cc1 [Example 182] : 100 to 1000 nM

Value of EC50 reported for the compound CCN(Cc1cc2c(s1)n(Cc1ccc(OC)cc1)c(=O)n1ncnc21)C1CCOC(C)(C)C1 (centres unmarked) [Example 196] is 1000 to 10000 nM

Kindly note the recorded EC50 for Cc1csc2c1c1ncnn1c(=O)n2Cc1cccc(Cl)c1 [Example 11] , which is 100 to 1000 nM

In plain terms, COc1ccc(Cn2c(=O)n3ncnc3c3cc(CN4CCC(Oc5ccncc5)CC4)sc32)cc1 [Example 185] has a documented EC50 of 100 to 1000 nM

Consider O=c1n(Cc2ccc(Cl)c(Cl)c2)c2sc3c(c2c2ncnn12)CCOC3 [Example 91] . Its measured EC50 is 100 to 1000 nM

Item: COc1ccc(Cn2c(=O)n3ncnc3c3c(CN4C[C@@H](C)O[C@@H](C)C4)csc32)cc1 [Example 78] | EC50: 100 to 1000 nM

---

# TESTED_SYSTEM: human PDE1b enzyme (Homo sapiens (Human))
# ASSAY_PROCEDURE: PDE1b inhibitory assay (IMAP TR-FRET)
# SETTINGS: negative log of half-maximal molar inhibitory concentration; 200 nM FAM-cAMP; reported as ranges
PROPERTY_NAME: PDE1b (pEC50)

| MOLECULE | RECORDED_VALUE |
| --- | --- |
| COc1ccc(Cn2c(=O)n3ncnc3c3cc(CN4CCCOCC4)sc32)c(F)c1F | >7 |
| COc1ccc(Cn2c(=O)n3ncnc3c3c4c(sc32)CN(CC2CCC(=O)O2)CC4)cc1 (centres unmarked) | >7 |
| COc1ccc(Cn2c(=O)n3ncnc3c3c4c(sc32)CN(Cc2ccccn2)CCC4)cc1 | >7 |
| COc1ccc(Cn2c(=O)n3ncnc3c3c4c(sc32)CN(Cc2nccn2C)CC4)c(F)c1 | >7 |
| O=c1n(Cc2ccc(F)c(Cl)c2)c2sc(CN3CCOCC3)cc2c2ncnn12 | >7 |
| COc1ccc(Cn2c(=O)n3ncnc3c3c4c(sc32)CN(CC2CCOCC2)CC4(F)F)c(F)c1 | >7 |
| COc1ccc(Cn2c(=O)n3ncnc3c3c(C)c(CN(C)C4CC4)sc32)cc1 | >7 |

Could you now consider this next molecule?
The recorded PDE1b (pEC50) for entry `CCN1CCN(Cc2cc3c(s2)n(Cc2ccc(OC)cc2)c(=O)n2ncnc32)CC1=O` equals >7

---

# TESTED_SYSTEM: UniProtKB Q01064
# ASSAY_PROCEDURE: PDE1b inhibitory assay (IMAP TR-FRET)
PROPERTY_NAME: EC50

Here are 2 molecules together with their reported answers.
| MOLECULE | RECORDED_VALUE |
| --- | --- |
| O=c1n(Cc2ccc(Cl)cc2)c2sc(Cc3ccccc3)cc2c2ncnn12 [Example 22] | 0.1 to 1 µM |
| O=c1n(Cc2ccc(Cl)cc2F)c2sc3c(c2c2ncnn12)CCOC3 [Example 94] | 0.1 to 1 µM |

EC50 for O=c1n(Cc2ccccc2Cl)c2sccc2c2ncnn12 [Example 1] is 1 to 10 µM

---

# TESTED_SYSTEM: human PDE1b enzyme (Homo sapiens (Human))
# ASSAY_PROCEDURE: PDE1b inhibitory assay (IMAP TR-FRET)
pEC50: −log10 of the molar value.
PROPERTY_NAME: pEC50

// solved cases for pEC50 follow
| MOLECULE | RECORDED_VALUE |
| --- | --- |
| COc1ccc(Cn2c(=O)n3ncnc3c3cc(CN4CCOCC4)sc32)c(F)c1 [Example 208] | 6.00 to 7.00 |
| COc1ccc(Cn2c(=O)n3ncnc3c3c4c(sc32)CN(CC(C)C)CC4(F)F)cc1 [Example 218] | 6.00 to 7.00 |
| CC(C)CCc1cc2c(s1)n(Cc1ccccc1Cl)c(=O)n1ncnc21 [Example 19] | 5.00 to 6.00 |

Summary for this molecule, COc1ccc(Cn2c(=O)n3ncnc3c3c(CN(C(C)C)C(C)C)csc32)cc1 [Example 215] : pEC50 is 6.00 to 7.00

---

Here the recorded EC50 is given for each entry.
# TESTED_SYSTEM: human PDE1b enzyme (Homo sapiens (Human))
# ASSAY_PROCEDURE: PDE1b inhibitory assay (IMAP TR-FRET)

As a guide, the following entries are already answered.
| MOLECULE | EC50 |
| --- | --- |
| COc1ccc(Cn2c(=O)n3ncnc3c3c4c(sc32)CN(C(=O)C2CCN(C)C2)CC4)cc1 (stereo not drawn) [Example 163] | 100 to 1000 nM |
| O=c1n(Cc2ccc(Cl)cc2)c2sc3c(c2c2ncnn12)CCN(CC(F)(F)F)C3 [Example 107] | 100 to 1000 nM |
| Cc1cc2c(s1)n(Cc1ccc(Cl)cc1)c(=O)n1ncnc21 [Example 15] | 100 to 1000 nM |
| Cc1csc2c1c1ncnn1c(=O)n2Cc1ccccc1 [Example 6] | 100 to 1000 nM |
| O=c1n(Cc2ccccc2Cl)c2sc3c(c2c2ncnn12)CCCC3 [Example 81] | 1000 to 10000 nM |

Form: item O=c1n(Cc2ccc(Cl)cc2)c2sc3c(c2c2ncnn12)CCNC3 [Example 99] ; test system human PDE1b enzyme (Homo sapiens (Human)); EC50: 1000 to 10000 nM

The recorded EC50 with human PDE1b enzyme (Homo sapiens (Human)) for Cc1csc2c1c1ncnn1c(=O)n2Cc1ccc(Cl)cc1 [Example 3] was 100 to 1000 nM

Lab entry: human PDE1b enzyme (Homo sapiens (Human)) assay, molecule COc1ccc(Cn2c(=O)n3nccc3c3cc(CN4CCOCC4)sc32)cc1 [Example 82] , EC50 = 100 to 1000 nM

human PDE1b enzyme (Homo sapiens (Human)) data for Cc1cc2c(s1)n(Cc1cccc(Cl)c1)c(=O)n1ncnc21 [Example 16] ; its EC50: 1000 to 10000 nM

Values were extracted from patent US10092575B2.
